Tested on: biotinyl-Val-oxazolone
assay summary: self-aminoacylation, catalytic enhancement (BVO) (fold over background); higher = more active; k-Seq, kA / k0A0; sequences stand for … in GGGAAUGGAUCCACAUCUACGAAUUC…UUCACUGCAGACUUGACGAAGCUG
This sample holds only a part of the variants without activity.
readout name: self-aminoacylation

Give the measured self-aminoacylation of CUUACCCUGGUCAUCGUGUGA [Fam2.1 aminoacylation ribozyme variant] .
2.11

Continue with ACUACCCUGGUCAUCGGGUGA [Fam2.1 aminoacylation ribozyme variant]
20.9

What would you report for CCAAACUUCAAGCAAUCGGUG [Fam1B.1 aminoacylation ribozyme variant] ?
4.43

Now give it for CUUCUUCAAACAACCGGUCUG [Fam1A.1 aminoacylation ribozyme variant] too.
0.949

Moving on to the next sequence: CUACUUCAAACAAUCCGUCGG [Fam1A.1 aminoacylation ribozyme variant]
0.98

What do you have for AUUCACCAAGGUCAUCGGGUG [Fam2.2 aminoacylation ribozyme variant] ?
5.71

Another sequence to check: AAUUUUUCUAAUAGUCGCAAG [Fam3.1 aminoacylation ribozyme variant]
1.75
